The measurements presented in this section are drawn from patent US5981541A.

Consider the following compounds; for each one, report its pIC50.
- System: camptothecin-resistant CPT-K5 cells
- test_summary: MTT-microtiter plate tetrazolinium cytotoxicity assay (MTA), CPT-K5
- Assay type: cell-based, human
- test_settings: Homo sapiens, CPT-K5, 96 h, read-out: Cytotoxicity IC50, CPT-K5
Numbers only, as −log10 of the molar value.

# example entries with known answers
Result for COc1cc2ccc3nc4ccccc4cc3c2cc1OC [Compound 14d, 2,3-Dimethoxy-benz[a]acridine] , tested on camptothecin-resistant CPT-K5 cells, pIC50: 4.86

The recorded pIC50 with camptothecin-resistant CPT-K5 cells for COc1cc2c(cc1OC)-c1cc3ccccc3nc1CC2 [Compound 13d, 2,3-Dimethoxy-5,6-dihydrobenz[a]acridine] was 5.07

Test item COc1cc2ccc3c(C)c4cc(OC)c(OC)cc4[n+](C)c3c2cc1OC [Compound 9] ; camptothecin-resistant CPT-K5 cells; reported pIC50 was 5.92

Field pIC50 (camptothecin-resistant CPT-K5 cells), entry COc1cc2c[n+](C)c3c4cc5c(cc4ccc3c2cc1OC)OCO5 [Nitidine, reference compound] : 5.41

For the compound COc1cc2cc3c(nc2cc1OC)CCc1cc(Cl)ccc1-3 [Compound 13j] , the measured pIC50 on camptothecin-resistant CPT-K5 cells was 4.81

Assay camptothecin-resistant CPT-K5 cells, sample COc1cc2cc3c(ccc4ccccc43)nc2cc1OC [Compound 14c, 9,10-Dimethoxybenz[a]acridine] , pIC50 read: 4.51

Record pIC50 per entry; entries follow.
1. COc1cc2cc3c4cc(OC)c(OC)cc4cc[n+]3c(C)c2cc1OC [Coralyne, reference compound]
2. COc1cc2cc3c(ccc4cc(OC)c(OC)cc43)nc2cc1OC [Compound 14a, 2,3,9,10-Tetramethoxybenz[a]acridine]

1: 4.70; 2: 5.54

Answer for every listed entry: what is its pIC50? The entries follow.
1. COc1cc2c(cc1OC)-c1c(c(C)c3cc(OC)c(OC)cc3[n+]1C)CC2 [Compound 8]
2. COc1cc2c(cc1OC)-c1cc3cc(OC)c(OC)cc3nc1CC2 [Compound 13a]
3. COc1cc2cc3c(nc2cc1OC)CCc1c-3ccc(OC)c1OC [Compound 13f]
4. Oc1cc2c(cc1O)-c1cc3cc(O)c(O)cc3nc1CC2 [Compound 13g]
5. COc1cc2c(cc1OC)-c1cc3cc4c(cc3nc1CC2)OCO4 [Compound 13b]

1: 4.91; 2: 5.15; 3: 4.85; 4: 4.87; 5: 4.83

# lookup: COc1cc(C2c3cc4c(cc3C(OC3OC5COC(c6cccs6)OC5C(O)C3O)C3COC(=O)C23)OCO4)cc(OC)c1O (stereo not shown) [VM-26, reference compound] on camptothecin-resistant CPT-K5 cells, pIC50 = 6.30

---

- System: camptothecin-resistant CPT-K5 cells
- test_summary: MTT-microtiter plate tetrazolinium cytotoxicity assay (MTA), CPT-K5
- Type: cell-based, human
- test_settings: Homo sapiens, CPT-K5, 96 h, read-out: Cytotoxicity IC50, CPT-K5
Would you kindly list IC50 for each of these molecules?

Some molecules with recorded IC50:
Data point: COc1cc2c(cc1OC)-c1cc3cc(OC)c(OC)cc3[n+](C)c1CC2 [Compound 15a] ; IC50 = > 24 µM

// Oc1cc2cc3c(ccc4cc(O)c(O)cc43)nc2cc1O [Compound 14g, 2,3,9,10-tetrahydroxybenz[a]acridine] : IC50 value = > 34 µM

Note to self: IC50 recorded for CC[C@@]1(O)C(=O)OCc2c1cc1n(c2=O)Cc2cc3ccccc3nc2-1 [CPT, Camptothecin, reference compound] was > 10 µM

The recorded IC50 for entry COc1cc2cc3c(nc2cc1OC)CCc1ccccc1-3 [Compound 13c] equals 6.9 µM

// recorded IC50 for `COc1cc2cc3c(nc2cc1OC)CCc1ccc(N)cc1-3` : > 33 µM

For record `COc1cc2ccc3c(C)c4cc(OC)c(OC)cc4nc3c2cc1OC` the listed IC50 is 5.5 µM

The molecule identified as COc1cc2cc3c(nc2cc1OC)CCc1c-3ccc2c1OCO2 [Compound 13e] registered its IC50 at 22.4 µM

Others:
Looking up COc1cc2ccc3nc4cc5c(cc4cc3c2cc1OC)OCO5 [Compound 14b] , I found its IC50 recorded as 7.5 µM

---

- tgt: human topoisomerase I (Homo sapiens, UniProt P11387)
- Construct: 15 amino acid fusion from pET-11a vector (N); made in house; host or cells: E. coli BL21(DE3)
- test_summary: Topo I-mediated DNA cleavage assay
- Type: biochemical
- test_settings: concentration relative to camptothecin (CPT = 1) producing the same cleavage on plasmid DNA in the presence of human topoisomerase I
Would you kindly list Topo I-mediated DNA cleavage (REC, Relative Effective Concentration) for each of these compounds?

# example entries with known answers
get_value(item= COc1cc2c(cc1OC)-c1cc3cc(OC)c(OC)cc3nc1CC2 [Compound 13a] , readout=Topo I-mediated DNA cleavage (REC, Relative Effective Concentration)) returns 100

Topo I-mediated DNA cleavage (REC, Relative Effective Concentration) recorded for this compound, Oc1cc2cc3c(ccc4cc(O)c(O)cc43)nc2cc1O [Compound 14g, 2,3,9,10-tetrahydroxybenz[a]acridine] , is 100

For every item in the list below, what is its measured Topo I-mediated DNA cleavage (REC, Relative Effective Concentration)?
1. COc1cc2ccc3c(cc4cc(OC)c(OC)cc4[n+]3C)c2cc1OC [Compound 16a]
2. COc1cc2c[n+](C)c3c4cc5c(cc4ccc3c2cc1OC)OCO5 [Nitidine, reference compound]
3. COc1cc2c(cc1OC)-c1cc3ccccc3nc1CC2 [Compound 13d, 2,3-Dimethoxy-5,6-dihydrobenz[a]acridine]
4. COc1cc2ccc3nc4ccccc4cc3c2cc1OC [Compound 14d, 2,3-Dimethoxy-benz[a]acridine]

["> 1000", 0.1, 100, 1000]

Look up Topo I-mediated DNA cleavage (REC, Relative Effective Concentration) for the entries below, preserving their order.
1. COc1cc2cc3c(ccc4ccccc43)nc2cc1OC [Compound 14c, 9,10-Dimethoxybenz[a]acridine]
2. COc1cc2cc3c(nc2cc1OC)CCc1c-3ccc2c1OCO2 [Compound 13e]

> 1000
1.0

---

- tgt: human topoisomerase I (Homo sapiens, UniProt P11387)
- Construct: 15 amino acid fusion from pET-11a vector (N); made in house; host or cells: E. coli BL21(DE3)
- test_summary: Topo I-mediated DNA cleavage assay
- Format: biochemical
- test_settings: concentration relative to camptothecin (CPT = 1) producing the same cleavage on plasmid DNA in the presence of human topoisomerase I
outcome_measure: Topo I-mediated DNA cleavage (REC, Relative Effective Concentration)
Numbers only.

Provide Topo I-mediated DNA cleavage (REC, Relative Effective Concentration) values for the following items, in order.
1. COc1cc2c(cc1OC)-c1cc3cc4c(cc3nc1CC2)OCO4 [Compound 13b]
2. CC[C@@]1(O)C(=O)OCc2c1cc1n(c2=O)Cc2cc3ccccc3nc2-1 [CPT, Camptothecin, reference compound]

100
1

Record Topo I-mediated DNA cleavage (REC, Relative Effective Concentration) for all entries; do not skip any.
1. COc1cc2c(cc1OC)-c1cc3cc(OC)c(OC)cc3[n+](C)c1CC2 [Compound 15a]
2. Oc1cc2c(cc1O)-c1cc3cc(O)c(O)cc3nc1CC2 [Compound 13g]

100
1.0

---

- tgt: human topoisomerase I (Homo sapiens, UniProt P11387)
- Construct: 15 amino acid fusion from pET-11a vector (N); made in house; host or cells: E. coli BL21(DE3)
- Sequence (P11387 1-765): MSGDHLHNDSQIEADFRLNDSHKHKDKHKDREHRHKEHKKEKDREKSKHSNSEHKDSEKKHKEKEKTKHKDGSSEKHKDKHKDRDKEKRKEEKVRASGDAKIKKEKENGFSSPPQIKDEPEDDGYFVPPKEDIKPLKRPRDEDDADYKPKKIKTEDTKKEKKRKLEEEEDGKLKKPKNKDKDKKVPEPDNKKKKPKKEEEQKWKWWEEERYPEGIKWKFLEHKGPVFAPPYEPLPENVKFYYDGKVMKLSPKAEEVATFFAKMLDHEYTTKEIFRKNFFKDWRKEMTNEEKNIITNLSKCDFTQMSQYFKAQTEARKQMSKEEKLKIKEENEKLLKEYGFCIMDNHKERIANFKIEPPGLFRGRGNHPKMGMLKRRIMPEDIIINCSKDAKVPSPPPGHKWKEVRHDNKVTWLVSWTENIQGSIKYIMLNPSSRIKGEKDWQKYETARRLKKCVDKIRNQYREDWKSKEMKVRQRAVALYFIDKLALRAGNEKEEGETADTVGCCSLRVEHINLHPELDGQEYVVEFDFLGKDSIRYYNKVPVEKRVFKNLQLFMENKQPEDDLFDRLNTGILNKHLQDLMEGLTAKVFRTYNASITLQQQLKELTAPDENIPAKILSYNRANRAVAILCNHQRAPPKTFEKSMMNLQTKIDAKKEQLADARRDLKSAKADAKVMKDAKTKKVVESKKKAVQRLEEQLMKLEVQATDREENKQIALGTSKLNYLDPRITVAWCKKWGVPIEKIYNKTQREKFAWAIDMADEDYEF
- test_summary: Topo I-mediated DNA cleavage assay
- Assay type: biochemical
- test_settings: concentration relative to camptothecin (CPT = 1) producing the same cleavage on plasmid DNA in the presence of human topoisomerase I
outcome_measure: Topo I-mediated DNA cleavage (REC, Relative Effective Concentration)
Numbers only.

// below: answered compounds
Form field Topo I-mediated DNA cleavage (REC, Relative Effective Concentration), entry COc1cc2cc3c(nc2cc1OC)CCc1c-3ccc(OC)c1OC [Compound 13f] : 100

Reported Topo I-mediated DNA cleavage (REC, Relative Effective Concentration) for COc1cc2cc3c(ccc4cc(Cl)ccc43)nc2cc1OC [Compound 14j, 3-Chloro-9,10-dimethoxybenz[a]acridine] was 1000

# compound COc1cc2cc3c(nc2cc1OC)CCc1cc(Cl)ccc1-3 [Compound 13j] ; its Topo I-mediated DNA cleavage (REC, Relative Effective Concentration) = 10

// COc1cc2ccc3nc4cc5c(cc4cc3c2cc1OC)OCO5 [Compound 14b] : Topo I-mediated DNA cleavage (REC, Relative Effective Concentration) value = 1000

State the recorded Topo I-mediated DNA cleavage (REC, Relative Effective Concentration) for every item in the following list.
1. COc1cc2cc3c(ccc4cc(OC)c(OC)cc43)nc2cc1OC [Compound 14a, 2,3,9,10-Tetramethoxybenz[a]acridine]
2. COc1cc2cc3c(nc2cc1OC)CCc1ccccc1-3 [Compound 13c]
3. COc1cc2cc3c(nc2cc1OC)CCc1ccc(N)cc1-3
4. COc1cc2cc3c4cc(OC)c(OC)cc4cc[n+]3c(C)c2cc1OC [Coralyne, reference compound]

1000
1000
100
1
